# assay_system: Epidermal growth factor receptor (Homo sapiens, UniProt P04626+P00533+Q15303+P21860)
# assay_name: Inhibition of human EGFR extracellular domain/TIE2 intracellular domain transfected in mouse NIH/3T3 cells assessed as phosphotyrosine level preincubated for 60 mins followed by EGF stimulation by DELFIA assay
# Type: cell-based
# measurement_setup: nih3t3
Label Satisfied when IC50 is strictly below 0.005 µM; otherwise label Not satisfied.

>  <structure_string>
Nc1ncnc2c1c(C(=O)c1cccc(NC(=O)Nc3ccc(Cl)cc3)c1)cn2C1CCCC1

>  <assay_system>
Epidermal growth factor receptor (Homo sapiens, UniProt P04626+P00533+Q15303+P21860)

>  <discrete_label>
Satisfied

$$$$
>  <structure_string>
Nc1ncnc2c1c(C(=O)c1ccc(NS(=O)(=O)c3c(F)cccc3F)cc1)cn2C1CCCC1

>  <assay_system>
Epidermal growth factor receptor (Homo sapiens, UniProt P04626+P00533+Q15303+P21860)

>  <discrete_label>
Not satisfied

$$$$
>  <structure_string>
Cc1ccc(F)c(NC(=O)Nc2cccc(C(=O)c3cn(C4CCCC4)c4ncnc(N)c34)c2)c1

>  <assay_system>
Epidermal growth factor receptor (Homo sapiens, UniProt P04626+P00533+Q15303+P21860)

>  <discrete_label>
Satisfied

$$$$
>  <structure_string>
Nc1ncnc2c1c(C(=O)c1ccc(NC(=O)Nc3c(F)cccc3F)cc1)cn2C1CCCC1

>  <assay_system>
Epidermal growth factor receptor (Homo sapiens, UniProt P04626+P00533+Q15303+P21860)

>  <discrete_label>
Not satisfied

$$$$
>  <structure_string>
Nc1ncnc2c1c(C(=O)c1cccc(NC(=O)Nc3c(F)cccc3F)c1)cn2C1CCCC1

>  <assay_system>
Epidermal growth factor receptor (Homo sapiens, UniProt P04626+P00533+Q15303+P21860)

>  <discrete_label>
Not satisfied

$$$$

Task: Strictly below 0.005 µM in IC50? `COc1ccc(C)cc1NC(=O)Nc1cccc(C(=O)c2cn(C3CCCC3)c3ncnc(N)c23)c1`
Result: Satisfied

Task: Determine if `Nc1ncnc2c1c(-c1nc3ccc(NC(=O)Nc4c(F)cccc4F)cc3[nH]1)cn2C1CCCC1` shows IC50 strictly lower than 0.005 µM.
Result: Not satisfied

Task: Take the molecule `Nc1ncnc2c1c(-c1nc3ccc(NS(=O)(=O)c4c(F)cccc4F)cc3[nH]1)cn2C1CCCC1` and say whether its IC50 is less than 0.005 µM.
Result: Not satisfied

Task: Is IC50 of `Nc1ncnc2c1c(C(=O)c1cccc(NC(=O)Nc3ccc(Cl)cc3Cl)c1)cn2C1CCCC1` strictly below 0.005 µM?
Result: Satisfied

Task: Does the reported IC50 of `Nc1ncnc2c1c(C(=O)c1cccc(NS(=O)(=O)c3c(F)cccc3F)c1)cn2C1CCCC1` stay below 0.005 µM?
Result: Not satisfied
